System: P. aeruginosa PAO1
test.summary: microbe, parasite or virus in culture
assay.setup: supplement CSV; full MH pH 7.4
No end group written: not given here.
value.kind: MIC P. aeruginosa PAO1

> print(dat)
                                  substance   reported
1  VDKPPYLPRPRPPRRIYNR-NH2 [L-Onc, reference compound]  >64 µg/mL
2  VDKPPYLPRPRPPRRIYNR [sr3Nterm-Onc] (VDKPPYLPRPRPPRRIYNR-NH2; also: residues 1-3 stereorandomized (1:1 L/D mixture))  >64 µg/mL
3  VDKPPYLPRPRPPRRIYNR [sr7Cterm-Onc] (VDKPPYLPRPRPPRRIYNR-NH2; also: residues 13-19 stereorandomized (1:1 L/D mixture))   64 µg/mL
4  VDKPPYLPRPRPPRRIYNR [sr5Cterm-Onc] (VDKPPYLPRPRPPRRIYNR-NH2; also: residues 15-19 stereorandomized (1:1 L/D mixture))   64 µg/mL
5  VDKPPYLPRPRPPRRIYNR [sr10Cterm-Onc] (VDKPPYLPRPRPPRRIYNR-NH2; also: residues 10-19 stereorandomized (1:1 L/D mixture))   64 µg/mL
6  VDKPPYLPRPRPPRRIYNR [sr14Nterm-Onc] (VDKPPYLPRPRPPRRIYNR-NH2; also: residues 1-14 stereorandomized (1:1 L/D mixture))  >64 µg/mL

---

Tested on: P. aeruginosa PA14 2P4 (pmrB)
test.summary: microbe, parasite or virus in culture
assay.setup: supplement CSV; 12.5% MH pH 7.4
No end group written: not given here.
Here, each record is paired with measured MIC P. aeruginosa PA14 2P4 data.
value.kind: MIC P. aeruginosa PA14 2P4 (µg/mL)

> print(dat)
                                  substance              target.under.test  units.of.measure  reported
1  VDKPPYLPRPRPPRRIYNR-NH2 [L-Onc, reference compound]  P. aeruginosa PA14 2P4 (pmrB)             µg/mL        16
2  VDKPPYLPRPRPPRRIYNR [sr9Cterm-Onc] (VDKPPYLPRPRPPRRIYNR-NH2; also: residues 11-19 stereorandomized (1:1 L/D mixture))  P. aeruginosa PA14 2P4 (pmrB)             µg/mL         4
3  VDKPPYLPRPRPPRRIYNR [sr-Onc] (VDKPPYLPRPRPPRRIYNR-NH2; also: all 19 residues stereorandomized (1:1 L/D mixture))  P. aeruginosa PA14 2P4 (pmrB)             µg/mL        16
4  VDKPPYLPRPRPPRRIYNR [sr14Nterm-Onc] (VDKPPYLPRPRPPRRIYNR-NH2; also: residues 1-14 stereorandomized (1:1 L/D mixture))  P. aeruginosa PA14 2P4 (pmrB)             µg/mL        16
5  VDKPPYLPRPRPPRRIYNR [sr5Cterm-Onc] (VDKPPYLPRPRPPRRIYNR-NH2; also: residues 15-19 stereorandomized (1:1 L/D mixture))  P. aeruginosa PA14 2P4 (pmrB)             µg/mL         2
6  VDKPPYLPRPRPPRRIYNR [sr8Cterm-Onc] (VDKPPYLPRPRPPRRIYNR-NH2; also: residues 12-19 stereorandomized (1:1 L/D mixture))  P. aeruginosa PA14 2P4 (pmrB)             µg/mL         2
